target_system: Voltage-gated potassium channel subunit beta-2 (Rattus norvegicus) (UniProt P62483)
Sequence (P62483 whole entry, looked up): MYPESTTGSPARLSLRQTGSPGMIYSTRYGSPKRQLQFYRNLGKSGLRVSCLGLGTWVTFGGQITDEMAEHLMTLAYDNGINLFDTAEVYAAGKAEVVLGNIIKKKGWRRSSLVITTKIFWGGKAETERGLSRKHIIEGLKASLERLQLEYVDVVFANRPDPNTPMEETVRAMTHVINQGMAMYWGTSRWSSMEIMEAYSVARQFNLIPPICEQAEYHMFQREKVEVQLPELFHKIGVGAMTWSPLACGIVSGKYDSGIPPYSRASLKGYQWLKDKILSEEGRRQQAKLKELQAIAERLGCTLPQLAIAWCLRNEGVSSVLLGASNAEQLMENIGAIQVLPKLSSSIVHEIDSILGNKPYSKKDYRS
assay_details: KvBeta enzyme negative modulators, primary screen, biochemical, NADPH fluorescence (AID 622);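 note: slope of raw intensity against log time taken from 70 to 1610 s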
condition: recombinant KvBeta, 4-cyanobenzaldehyde reduction, at 10 µM, stronger effect = higher value
fluorescence slope below -0.5 gives -1; fluorescence slope at or above it gives 1.

> print(dat)
                                   compound                             target.system  label.class
1  O=C(c1ccco1)N1CCN(C(=O)c2sccc2-c2ccccc2)CC1  Voltage-gated potassium channel subunit beta-2 (Rattus norvegicus) (UniProt P62483)           -1
2     Clc1ccc(-n2ncc3c(NCc4cccs4)ncnc32)cc1  Voltage-gated potassium channel subunit beta-2 (Rattus norvegicus) (UniProt P62483)            1
3  CCOC(=O)C1=C(C)NC(C)=C(C(=O)OCC)C1C(=O)OC1CCOC1=O (stereo unspecified)  Voltage-gated potassium channel subunit beta-2 (Rattus norvegicus) (UniProt P62483)           -1
4  COCCn1c(C)cc(C(=O)COC(=O)CCN2C(=O)c3ccccc3C2=O)c1C  Voltage-gated potassium channel subunit beta-2 (Rattus norvegicus) (UniProt P62483)           -1

Check the entry `N#Cc1c(N2CCCCC2)nc(N2CCCCC2)c2c1CCN(Cc1ccccc1)C2` : does fluorescence slope equal or exceed -0.5?
1

Hello, I need to know if `COc1ccccc1C(=O)NCC(=O)n1nc(C)cc1C` has measured fluorescence slope not below -0.5. Thanks!
1

Determine whether measured fluorescence slope meets or exceeds -0.5 for CCCCN1C(=O)C(O)=C(C(C)=O)C1c1ccc(OC)cc1OC (stereo unspecified)
1

Determine whether this compound has fluorescence slope no lower than -0.5: `CCN(CC)c1nc2nonc2nc1N(CC)CC`
1

Entry `O=C(c1cccnc1)N1CCc2ccccc21` : is its fluorescence slope no less than -0.5?
1
